The reported numbers originate from ChEMBL document CHEMBL1138594.

Biological target: UniProtKB Q60641
Sequence (Q60641 whole entry): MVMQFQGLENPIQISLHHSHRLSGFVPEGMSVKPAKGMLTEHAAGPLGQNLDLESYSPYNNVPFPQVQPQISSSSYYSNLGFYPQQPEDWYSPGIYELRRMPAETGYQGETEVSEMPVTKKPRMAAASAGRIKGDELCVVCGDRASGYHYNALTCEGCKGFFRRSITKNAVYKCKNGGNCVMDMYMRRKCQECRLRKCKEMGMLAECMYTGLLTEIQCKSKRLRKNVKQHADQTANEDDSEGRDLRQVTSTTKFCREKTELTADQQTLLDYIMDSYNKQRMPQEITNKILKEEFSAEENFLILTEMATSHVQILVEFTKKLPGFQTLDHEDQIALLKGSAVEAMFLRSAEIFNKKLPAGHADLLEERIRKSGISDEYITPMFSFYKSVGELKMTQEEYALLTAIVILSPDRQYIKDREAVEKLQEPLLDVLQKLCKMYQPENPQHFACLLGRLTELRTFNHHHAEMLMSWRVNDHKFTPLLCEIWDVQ
Experiment: Agonist activity at mouse chimeric FXR assessed as receptor transactivation by luciferase transcriptional reporter gene assay relative to GW-4064
Type: functional
Design: concentration or dose not given beside the values
VALUE TYPE: Activity (%)

{"columns": ["SMI", "EXPERIMENTAL SYSTEM", "VALUE OBSERVED"],
 "data": [
  ["CC(C)c1onc(-c2ccc(S(C)(=O)=O)cc2Cl)c1COc1ccc(/C=C/c2cccc(C(=O)O)c2)c(Cl)c1", "UniProtKB Q60641", 0],
  ["Cc1cc(OCc2c(-c3cc[nH]c(=O)c3Cl)noc2C(C)C)ccc1-c1ccc2c(C(=O)O)cn(C)c2c1", "UniProtKB Q60641", 63.3]
]}

(P) Cc1cc(OCc2c(-c3c(Cl)cncc3Cl)noc2C(C)C)ccc1-c1ccc2c(C(=O)O)cn(C)c2c1
(Q) COc1ccc(Cl)c(-c2noc(C(C)C)c2COc2ccc(-c3ccc4c(C(=O)O)cn(C)c4c3)c(C)c2)n1
QUERY: Which of the two gives a bigger number for Activity: P or Q ? Return value: the label identifying the chosen record.
RESULT: P
